# Tested on: PF3D7_0420300 AP2 domain 1 (GST-tagged)
# experimental-details: gcPBM binding intensity (ln(normalized median fluorescence intensity)); higher = stronger DNA binding
Whole data set: some 25,000 sequences, median “ln(normalized median fluorescence intensity)” near 9.3, cut for the highest 2% near 10. The list comes from a sample in which the highest values are over-represented; it also holds close analogues and randomly drawn sequences.
# key: entry, value: gcPBM binding intensity (ln)
Lab note: jot the number down without any unit.

In [3]: df
Out[3]:
                             entry_sequence  data_value
0  TTTTAAGAATAAAATTGTACACATACATGTGTTCGC [XGTACX_site438]        9.09

Prompt: # input sequence: GAAAAGAAAAATAAACGTACATAAATATTAACATTA [XGTACX_site8213] ; wanted: its gcPBM binding intensity (ln)
Completion: 9.2

Prompt: # input sequence: TATAACATAGGACACACACACATACATACACAAAAA [CACACA_site5062] ; wanted: its gcPBM binding intensity (ln)
Completion: 10.2

Prompt: # input sequence: ACTTGTAAGAAACACACACACACACCGATATATATA [CACACA_site4594] ; wanted: its gcPBM binding intensity (ln)
Completion: 10.4

Prompt: # input sequence: TAGTTATCACATTGCACACACATTTCCTTTTACATT [CACACA_site7589] ; wanted: its gcPBM binding intensity (ln)
Completion: 10

Prompt: # input sequence: AAAATAAAATAAAATACACACATACATACATACAAA [CACACA_site5366] ; wanted: its gcPBM binding intensity (ln)
Completion: 9.95

Prompt: # input sequence: ATTAAATACATTAACACACACACAAATATATACATA [CACACA_site2881] ; wanted: its gcPBM binding intensity (ln)
Completion: 10.1

Prompt: # input sequence: TATAGATACATATACACACACACACCGACATATATA [CACACA_site9138] ; wanted: its gcPBM binding intensity (ln)
Completion: 10.3

Prompt: # input sequence: GTTAATATACATAAACGTACAGAATTATTATGAGTT [XGTACX_site5185] ; wanted: its gcPBM binding intensity (ln)
Completion: 9.13

Prompt: # input sequence: TTTAACATAAATTAAACACACAATAAAATACATTAA [CACACA_site6699] ; wanted: its gcPBM binding intensity (ln)
Completion: 9.54

Prompt: # input sequence: AAACTTGTAAGAAACACACACACACGCATATAAATA [CACACA_site6518] ; wanted: its gcPBM binding intensity (ln)
Completion: 10

Prompt: # input sequence: TTTCTTATATAAGTGTACTAAAATATATATATGCAA [GTGCAC_negctrl_site546] ; wanted: its gcPBM binding intensity (ln)
Completion: 9

Prompt: # input sequence: ATTACATAACAATATACACACTATTGATTAAAGAGA [CACACA_site5602] ; wanted: its gcPBM binding intensity (ln)
Completion: 9.56
